System: ASK2
Construct: gene MAP3K6
ASSAY_CONDITIONS: concentration: 1 μM, replicates: in singlicate; n = 1;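 also: KINOMEscan kinase panel screen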

{"columns": ["COMPOUND", "%Inh"],
 "data": [
  ["Cn1cc(-c2cnc(N)c3c(-c4ccc5c(c4)CCN5C(=O)Cc4ccccc4)csc23)cn1 [GSK2593074]", "17%"],
  ["CCNc1nccc(-c2c(-c3ccc(F)cc3)ncn2C2CCN(C)CC2)n1", "0%"],
  ["CC(C)c1nc(-c2ccc(F)c(NS(=O)(=O)c3c(F)cccc3F)c2)c(-c2ccnc(Nc3ccc(N4CCOCC4)nc3)n2)s1 [GSK1804250]", "25%"],
  ["Cl.O=C(Nc1ccc(Oc2ccc3[nH]c(NC(=O)c4ccco4)nc3c2)cc1)Nc1cc(C(F)(F)F)ccc1F [GW683134]", "0%"],
  ["CN(c1ccc(NC(=O)N2CCN(CCCN3CCOCC3)CC2)cc1)c1ccnc(Nc2ccc(CS(C)(=O)=O)cc2)n1.Cl [GW830899]", "0%"],
  ["COC(=O)Nc1nc2ccc(Oc3ccc(NC(=O)Nc4cc(C(F)(F)F)ccc4F)cc3)cc2[nH]1.Cl [GW654607]", "15%"],
  ["Cn1cc(-c2ccc3c(c2)CCN3C(=O)Cc2cc(F)cc(F)c2F)c2c(N)ncnc21 [GSK2634140]", "0%"],
  ["Nc1ncnc2scc(-c3ccc(NC(=O)Cc4cc(F)ccc4F)cc3)c12.O=C(O)C(F)(F)F [SB-731254-M]", "21%"],
  ["O=C(Nc1c(F)cccc1F)c1cc(C(=O)c2ccccc2F)c[nH]1 [GSK1326180]", "0%"],
  ["Nc1cccc(-c2ccc3c(N)n[nH]c3c2)c1 [GSK2193613]", "0%"],
  ["CN(c1ccc(F)c(NC(=O)c2cccc(OC(C)(C)C#N)c2Cl)c1)c1ccc2nc(NC(=O)C3CC3)sc2n1", "6%"],
  ["Cl.Cl.NCC(NC(=O)c1cc(-c2cccnc2)c(-c2ccnc3[nH]ccc23)s1)c1ccccc1 (stereo not drawn) [GSK1323434]", "16%"]
]}

###

Tested on: STK35
ASSAY_CONDITIONS: concentration: 1 μM, replicates: in singlicate; n = 1
READOUT_KIND: %Inh (%)

{"columns": ["COMPOUND", "ASSAY_RESULT"],
 "data": [
  ["O=C(O)C(F)(F)F.O=c1[nH]ccc2nc(N[C@@H]3CCNC3)nc(Nc3ccc4c(c3)S(=O)(=O)CC4)c12 [GSK2181306]", 90.6],
  ["CC(C)(C)c1ccc(C(=O)Nc2cn3cc(-n4ccnc4)ccc3n2)cc1", 0],
  ["Fc1cc(Cl)ccc1Nc1ccnc2cc(-c3ccc(CN4CCOCC4)o3)ccc12 [GW560109]", 92.1],
  ["N#CC1(c2cccc(C(=O)Nc3cccc(Oc4ccc5nc(NC(=O)C6CC6)sc5n4)c3)c2)CC1", 0]
]}

###

Test system: DCAMKL2
Construct: gene DCLK2
ASSAY_CONDITIONS: concentration: 1 μM, replicates: in singlicate; n = 1
compounds and their reported %Inh

{"columns": ["COMPOUND", "STUDY_SYSTEM", "%Inh"],
 "data": [
  ["CN(C)CCNS(=O)(=O)c1ccc(-c2ccnc3[nH]ccc23)cc1", "DCAMKL2", "16%"],
  ["c1ccc(Oc2ccc(Nc3ccnc4cc(-c5ccc(CN6CCCCC6)o5)ccc34)cc2)nc1", "DCAMKL2", "8%"],
  ["COc1cc(Nc2ccnc3cc(-c4ccncc4)ccc23)cc(OC)c1OC.Cl", "DCAMKL2", "0%"],
  ["Cc1ccc(O)cc1Nc1ccnc2cc(-c3ccc(CN4CCCCC4)o3)ccc12", "DCAMKL2", "10%"],
  ["COc1cc(Nc2nccc(N3CCC(NC(=O)Nc4ccc5c(c4)OCO5)C3)n2)cc(OC)c1OC (centres unmarked)", "DCAMKL2", "7%"],
  ["COc1cccc(CC(=O)N2CCc3cc(-c4cn(C)c5ncnc(N)c45)ccc32)c1", "DCAMKL2", "0%"],
  ["Cn1cc(-c2ccc3c(c2)CCN3C(=O)Cc2cc(F)cc(F)c2F)c2c(N)ncnc21", "DCAMKL2", "0%"],
  ["Cc1cc(-c2ccnc(Nc3cccc(C#N)c3)n2)cc(C)c1O", "DCAMKL2", "10%"],
  ["COc1cccc(NC(=O)NCCNc2ccnc(Nc3ccc(F)cc3)n2)c1", "DCAMKL2", "0%"],
  ["Fc1cc(Cl)ccc1Nc1ccnc2cc(-c3ccc(CN4CCOCC4)o3)ccc12", "DCAMKL2", "0%"],
  ["COC(=O)Nc1nc2ccc(Oc3ccc(CC(=O)Nc4cc(C(F)(F)F)ccc4F)cc3)cc2[nH]1", "DCAMKL2", "0%"],
  ["CCNC(=O)/C=C/c1n[nH]c2cc(Sc3ccccc3C(=O)NC)ccc12", "DCAMKL2", "11%"],
  ["Cc1ccc(NC(=O)c2cccc(N3CCCCC3)c2)cc1-c1ccc(C(=O)NCC2CC2)cc1", "DCAMKL2", "19%"],
  ["CCn1cnc2c(NCc3ccccc3)ncnc21", "DCAMKL2", "0%"],
  ["Fc1cc(Cl)ccc1Nc1ccnc2cc(-c3ccc(CN4CCSCC4)o3)ccc12", "DCAMKL2", "0%"],
  ["CC(C)NCC(Cc1ccccc1)NC(=O)c1cc(Br)c(-c2ccnc3[nH]ccc23)s1.Cl.Cl (centres unmarked)", "DCAMKL2", "0%"],
  ["CN(C)c1ncnc2nc[nH]c12", "DCAMKL2", "0%"],
  ["CS(=O)(=O)c1cccc(CNc2nc(Nc3ccc4c(c3)CCC(=O)N4)ncc2C(F)(F)F)c1", "DCAMKL2", "0%"],
  ["Cc1ccc(C)c(NC(=O)Nc2ccc(C)c(-c3ccc(C(=O)Nc4ccncc4)cc3)c2)c1", "DCAMKL2", "0%"],
  ["COc1ccc(NC(=O)c2ccoc2)cc1-c1ccc(C(=O)NCC2CC2)cc1", "DCAMKL2", "17%"],
  ["CCn1c(-c2nonc2N)nc2c(-c3ccccc3)ncc(OCCCN)c21.O=C(O)C(F)(F)F.O=C(O)C(F)(F)F", "DCAMKL2", "9%"],
  ["N#Cc1cnc2cc(-c3cnc(CNCCN4CCOCC4)s3)ccc2c1Nc1ccc(Oc2ccccc2)cc1", "DCAMKL2", "0%"],
  ["COc1cccc(-c2nc(-c3ccccc3)[nH]c2-c2ccncc2)c1", "DCAMKL2", "22%"],
  ["Cc1ccccc1CC(=O)N1CCc2cc(-c3cn(C)c4ncnc(N)c34)ccc21", "DCAMKL2", "0%"],
  ["COc1cccc2c(-c3ccncc3)c(-c3ccc(F)cc3)nn12", "DCAMKL2", "0%"],
  ["CN(c1ccc2c(c1)nc(NCc1ccccc1)n2C)c1ccnc(Nc2ccc(CS(C)(=O)=O)cc2)n1.Cl", "DCAMKL2", "0%"],
  ["O=C1NC(=O)C(c2ccccc2Cl)=C1Nc1cccc(Cl)c1", "DCAMKL2", "10%"],
  ["CCNc1nccc(-c2c(-c3ccc(F)cc3)ncn2C2CCN(C)CC2)n1", "DCAMKL2", "0%"],
  ["Cl.Cl.NC(CNC(=O)c1cc(Br)c(-c2ccnc3[nH]ccc23)s1)c1ccccc1 (centres unmarked)", "DCAMKL2", "18%"],
  ["Cc1ccc(NC(=O)c2ccnc(N3CCCCC3)c2)cc1-c1ccc(C(=O)NCC2CC2)cc1", "DCAMKL2", "0%"],
  ["Cc1ccc(Nc2ccnc(Nc3ccc(C)c(F)c3)n2)cc1O.Cl", "DCAMKL2", "0%"],
  ["CSc1ccc(NC2=C(c3ccc(Cl)cc3)C(=O)NC2=O)cc1", "DCAMKL2", "2%"],
  ["Cn1cc(-c2cnc(N)c3c(-c4ccc5c(c4)CCN5C(=O)Cc4ccccc4)csc23)cn1", "DCAMKL2", "0%"],
  ["CN(C)CCOc1ccc(-c2cc(-c3ccc(Cl)c(O)c3)c(-c3ccncc3)[nH]2)cc1.Cl.Cl", "DCAMKL2", "0%"],
  ["Cl.N#CCc1ccc(Nc2nccc(Nc3ccc(Oc4ccccc4)cc3)n2)cc1", "DCAMKL2", "0%"]
]}

###

Tested on: PCTK2
Construct: gene CDK17
ASSAY_CONDITIONS: concentration: 1 μM, replicates: in singlicate; n = 1
Think of 10% as a floor: if %Inh stands on it or above, it is 1; beneath it, 0.

{"columns": ["MOLECULE", "CLASS_ASSIGNMENT"],
 "data": [
  ["Cn1cc(-c2ccc3c(c2)CCN3C(=O)Cc2cc(F)cc(F)c2F)c2c(N)ncnc21", 0],
  ["Cc1nn2c(=O)cc(N3CCO[C@H](C)C3)nc2n1Cc1cccc(Cl)c1Cl", 0],
  ["Cc1ccc(O)cc1Nc1ccnc2ccc(C(C)(C)C)cc12", 1],
  ["CNc1nccc(-c2ccc3c(N)n[nH]c3c2)n1", 1],
  ["Cc1cc(-c2ccnc(Nc3cccc(C#N)c3)n2)cc(C)c1O", 1],
  ["N#Cc1cnc2cc(-c3cnc(CNCCN4CCOCC4)s3)ccc2c1Nc1ccc(Oc2ccccc2)cc1", 1],
  ["O=C(Nc1c(F)cccc1F)c1cc(C(=O)c2ccccc2F)c[nH]1", 0],
  ["Fc1cc(Cl)ccc1Nc1ccnc2cc(-c3ccc(CN4CCOCC4)o3)ccc12", 0],
  ["Cl.Cl.NC(CNC(=O)c1cc(Br)c(-c2ccnc3[nH]ccc23)s1)c1ccccc1 (stereo not drawn)", 1],
  ["CCOc1nccc(-c2c(-c3ccc(F)cc3)ncn2C2CCNCC2)n1", 0],
  ["Nc1ncc(-c2ccc3nccc(-c4ccncc4)c3c2)cc1S(=O)(=O)N1CCCCC1", 1],
  ["CC(C)c1nc(-c2ccc(F)c(NS(=O)(=O)c3c(F)cccc3F)c2)c(-c2ccnc(Nc3ccc(N4CCOCC4)nc3)n2)s1", 1]
]}
